This listing pairs compounds with measured pEC50.
- target_under_test: THR alpha (Homo sapiens)
- Construct: expressed in transfected cells; host or cells: HEK293T (ATCC CRL-3216)
- Sequence (P10827 1-410 isoform P10827-2): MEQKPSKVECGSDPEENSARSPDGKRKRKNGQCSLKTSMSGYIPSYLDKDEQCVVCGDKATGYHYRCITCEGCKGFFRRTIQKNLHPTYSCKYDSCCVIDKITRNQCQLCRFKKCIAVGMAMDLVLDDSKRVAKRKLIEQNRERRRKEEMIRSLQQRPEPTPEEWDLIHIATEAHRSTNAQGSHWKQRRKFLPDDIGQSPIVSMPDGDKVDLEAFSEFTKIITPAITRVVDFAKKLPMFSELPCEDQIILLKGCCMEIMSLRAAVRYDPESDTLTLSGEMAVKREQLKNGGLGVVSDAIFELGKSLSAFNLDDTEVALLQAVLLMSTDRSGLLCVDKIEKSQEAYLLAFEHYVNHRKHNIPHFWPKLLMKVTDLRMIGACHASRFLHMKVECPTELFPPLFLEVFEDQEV
- Sequence (P19793 1-462 partner): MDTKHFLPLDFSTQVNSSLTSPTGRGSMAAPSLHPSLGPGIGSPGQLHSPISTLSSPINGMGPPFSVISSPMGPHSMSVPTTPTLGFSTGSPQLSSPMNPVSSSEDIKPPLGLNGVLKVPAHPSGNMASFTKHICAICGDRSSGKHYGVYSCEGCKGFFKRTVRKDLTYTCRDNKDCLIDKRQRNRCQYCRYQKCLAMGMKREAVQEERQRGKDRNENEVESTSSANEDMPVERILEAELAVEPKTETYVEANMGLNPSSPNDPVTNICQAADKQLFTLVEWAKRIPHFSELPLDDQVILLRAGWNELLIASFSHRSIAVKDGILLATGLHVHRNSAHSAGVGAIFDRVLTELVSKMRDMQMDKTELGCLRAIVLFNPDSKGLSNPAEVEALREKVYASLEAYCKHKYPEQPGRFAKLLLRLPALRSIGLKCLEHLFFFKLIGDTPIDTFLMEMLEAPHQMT
- assay_explanation: HEK293T THR alpha/RXR luciferase reporter assay (Assay 2)
- Assay type: cell-based
- study_conditions: Table 4; THR-alpha; Assay 2; read-out: Activity category Assay 2 (EC50, THR-alpha agonist activity)
pEC50: −log10 of the molar value.

Below, 2 compounds whose answers are already recorded.
CC(C)(O)c1cc(Oc2c(Cl)cc(-n3nc(N)c(=O)[nH]c3=O)cc2Cl)n[nH]c1=O :: 5.00 to 6.00
N#Cc1nn(-c2cc(Cl)c(Oc3ccc4[nH]ccc4c3)c(Cl)c2)c(=O)[nH]c1=O :: 5.00 to 6.00

Q: What value of pEC50 has been reported for the following compound? Nc1nn(-c2cc(Cl)c(Oc3n[nH]c(=O)cc3-c3ccc4c(c3)CCCC4)c(Cl)c2)c(=O)[nH]c1=O
Result: < 5.00

Q: What value of pEC50 has been reported for the following compound? Nc1nn(-c2cc(Cl)c(Oc3cc(C4CCC4)c(=O)[nH]n3)c(Cl)c2)c(=O)[nH]c1=O
Result: 6.00 to 6.60

Q: What value of pEC50 has been reported for the following compound? Nc1nn(-c2cc(Cl)c(Oc3cc(C4(c5ccccc5)CC4)c(=O)[nH]n3)c(Cl)c2)c(=O)[nH]c1=O
Result: 6.00 to 6.60

Q: What value of pEC50 has been reported for the following compound? O=c1cnn(-c2cc(Cl)c(Oc3cc(-c4ccc5c(c4)CCCC5)c(=O)[nH]n3)c(Cl)c2)c(=O)[nH]1
Result: < 5.00

Q: What value of pEC50 has been reported for the following compound? Cc1cc(-n2nc(C#N)c(=O)[nH]c2=O)cc(C)c1Cc1ccc2[nH]c(=O)cc(C(C)C)c2c1
Result: < 5.00

Q: What value of pEC50 has been reported for the following compound? CC1(C)CN(c2cc(Oc3c(Cl)cc(-n4nc(N)c(=O)[nH]c4=O)cc3Cl)n[nH]c2=O)C1
Result: 5.00 to 6.00

Q: What value of pEC50 has been reported for the following compound? Cc1cc(-n2nc(C#N)c(=O)[nH]c2=O)cc(C)c1Cc1cnc2[nH]cc(C(C)C)c2n1
Result: 5.00 to 6.00

Q: What value of pEC50 has been reported for the following compound? Nc1nn(-c2cc(Cl)c(Oc3n[nH]c(=O)cc3-c3ccccc3)c(Cl)c2)c(=O)[nH]c1=O
Result: < 5.00

Q: What value of pEC50 has been reported for the following compound? CC(C)c1n[nH]c2nnc(Oc3c(Cl)cc(-n4nc(C#N)c(=O)[nH]c4=O)cc3Cl)cc12 [Compound 75A]
Result: < 5.00

Q: What value of pEC50 has been reported for the following compound? N#Cc1nn(-c2cc(Cl)c(Oc3ccc4[nH]cc(CC5CC5)c4c3)c(Cl)c2)c(=O)[nH]c1=O
Result: 6.00 to 6.60

Q: What value of pEC50 has been reported for the following compound? C[C@H]1C[C@@H](c2cc(Oc3c(Cl)cc(-n4nc(N)c(=O)[nH]c4=O)cc3Cl)n[nH]c2=O)C1 (single isomer, unassigned)
Result: 5.00 to 6.00

Q: What value of pEC50 has been reported for the following compound? Nc1nn(-c2cc(Cl)c(Oc3cc(-c4cccc(Cl)c4)c(=O)[nH]n3)c(Cl)c2)c(=O)[nH]c1=O
Result: 6.60 to 7.30

Q: What value of pEC50 has been reported for the following compound? Cc1cc(-n2nc(N)c(=O)[nH]c2=O)cc(C)c1Cc1cc2c(C(C)C)c[nH]c2cn1
Result: 6.60 to 7.30
